Would you mind telling me the reported Critical molar volume of each entry?
# Test Settings: Liquid; Visual
Answers are plain numbers, in m3/mol.

Solved cases below.
Molecule | Reported Property | Measured Value
C[C@@H]1CCCC[C@H]1C (relative stereo) [trans-1,2-dimethylcyclohexane] | Critical molar volume | 0.00044
CCCCC1CCCCC1 | Critical molar volume | 0.00056
C[C@@H]1CCC[C@H](C)C1 [cis-1,3-dimethylcyclohexane] | Critical molar volume | 0.00043

Consider the additional molecule presented here.
For the molecule shown here, CC(C)(C)C1CCCCC1 , give the reported Critical molar volume. 0.0005

---

# Test Settings: Liquid; Capillary flow
Reported Property: Critical pressure (kPa)
Answers are plain numbers, in kPa.

Solved cases below.
Compound | Units Symbol | Critical pressure
OCCN1CCNCC1 [N-(2-hydroxyethyl)piperazine] | kPa | 3980
SC1CCCCC1 [cyclohexanethiol] | kPa | 3970
CCN(CC)CCO [(diethylamino)ethanol] | kPa | 3247
O=C1OCCO1 [ethylene carbonate] | kPa | 5280
C=C(C)C(=O)OC [methyl methacrylate] | kPa | 3750

Quick request: Critical pressure for each listed item, please.
1. CCOC(=O)OCC [diethyl carbonate]
2. OCC1CCC(CO)CC1 (stereo unspecified) [1,4-bis(hydroxymethyl)cyclohexane]
3. C1CCSC1 [tetrahydrothiophene]

3080
4000
5430
